Listed here: items and their measured % Total Sincalide-Related Impurities.
# test: Effect of antioxidants on sincalide formulation stability (HPLC)
# statedConditions: antioxidant 10 μg/mL, Sealed, 7 h
# Experimental: […] The effect of various antioxidants on the stabilization of sincalide was evaluated on open and sealed sincalide formulations over 15 hours. […] The sincalide and total sincalide-related impurities were monitored by reversed-phase HPLC with gradient elution and UV detection at 215 nm to compare the effectiveness of the antioxidants. […]
Give the value in % but do not write % after it.

Example entries and their recorded answers appear below.
compound | % Total Sincalide-Related Impurities (%)
CC(C)(C)CC(C)(C)c1ccc(OCCOCC[N+](C)(C)Cc2ccccc2)cc1 [Benzethonium Chloride] | 1.98
N[C@@H](CCC(=O)N[C@@H](CS)C(=O)NCC(=O)O)C(=O)O [Glutathione] | 1.74

[Q] Requested field: % Total Sincalide-Related Impurities. Item: O=S(=O)([O-])[O-].[Na+].[Na+] [Sodium Sulfate]
[A] 1.90

[Q] Form field: reported % Total Sincalide-Related Impurities of O=C1O[C@H]([C@@H](O)CO)C(O)=C1O [Ascorbic Acid]
[A] 2.05

[Q] Record request: % Total Sincalide-Related Impurities value, item O=S([O-])S(=O)(=O)[O-].[Na+].[Na+] [Sodium Metabisulfite]
[A] 1.66

[Q] What % Total Sincalide-Related Impurities value was documented for this compound, N[C@@H](CS)C(=O)O [Cysteine] ?
[A] 1.87

----------
# test: Effect of antioxidants on sincalide formulation stability (HPLC)
# statedConditions: antioxidant 10 μg/mL, Open, 15 h
Entries and their % Sincalide values follow.
Field format: number, assumed %, no unit text.

Here's what some known entries look like.
compound | % Sincalide [%]
O=S([O-])S(=O)(=O)[O-].[Na+].[Na+] [Sodium Metabisulfite] | 98.2
CC(C)(C)CC(C)(C)c1ccc(OCCOCC[N+](C)(C)Cc2ccccc2)cc1 [Benzethonium Chloride] | 92.6
O=S(=O)([O-])[O-].[Na+].[Na+] [Sodium Sulfate] | 98.1
O=C1O[C@H]([C@@H](O)CO)C(O)=C1O | 97.8
N[C@@H](CCC(=O)N[C@@H](CS)C(=O)NCC(=O)O)C(=O)O | 97.9

Let's switch to this compound now.
[Q] Which % Sincalide value is on record for N[C@@H](CS)C(=O)O ?
[A] 98.0

----------
Collected % Sincalide values appear next to each entry.
# test: Effect of antioxidants on sincalide formulation stability (HPLC)
# statedConditions: antioxidant 10 μg/mL, Sealed, 14 h
Could you give me the number in %? Just the number is fine.

[Q] I am curious: what % Sincalide value has been reported for O=C1O[C@H]([C@@H](O)CO)C(O)=C1O ?
[A] 97.8

[Q] # lookup: % Sincalide of N[C@@H](CCC(=O)N[C@@H](CS)C(=O)NCC(=O)O)C(=O)O
[A] 98.2

[Q] Name the reported % Sincalide value associated with the molecule CC(C)(C)CC(C)(C)c1ccc(OCCOCC[N+](C)(C)Cc2ccccc2)cc1 [Benzethonium Chloride]
[A] 98.0

----------
# test: Effect of antioxidants on sincalide formulation stability (HPLC)
# statedConditions: antioxidant 10 μg/mL, Open, 8 h
Under this convention, 1 (yes) denotes % Total Sincalide-Related Impurities strictly below 2% and 0 (no) denotes % Total Sincalide-Related Impurities at or above 2%.

Some solved entries appear below for comparison.
molecule | labelValue
CC(C)(C)CC(C)(C)c1ccc(OCCOCC[N+](C)(C)Cc2ccccc2)cc1 [Benzethonium Chloride] | 0 (no)
O=S(=O)([O-])[O-].[Na+].[Na+] [Sodium Sulfate] | 1 (yes)
N[C@@H](CS)C(=O)O [Cysteine] | 0 (no)
O=S([O-])S(=O)(=O)[O-].[Na+].[Na+] [Sodium Metabisulfite] | 1 (yes)

Okay, now this molecule:
[Q] Does this molecule meet the criterion % Total Sincalide-Related Impurities < 2%? N[C@@H](CCC(=O)N[C@@H](CS)C(=O)NCC(=O)O)C(=O)O [Glutathione]
[A] 1 (yes)
